system: MDA-MB-453; assay: normalised response (% of control), CellTox Green; higher = less cell death (100 = DMSO, 0 = benzethonium chloride kill control); conditions: incubation time: 72 h
Listed below: normalised response values for each entry.
Respond numerically; units are % and should not be typed.

| compound | normalised response, % |
| --- | --- |
| COc1cc(F)c(F)c(Nc2ccc(I)cc2F)c1NS(=O)(=O)C1(C[C@H](O)CO)CC1 [Refametinib] (10000 nM) | 102 |
| O=NN(CCCl)C(=O)NCCCl [Carmustine] (10000 nM) | 99.4 |
| CC1=C2C[C@H]3[C@@H](CC=C4C[C@@H](O)CC[C@@]43C)[C@@H]2CC[C@]12O[C@@H]1C[C@H](C)CN[C@H]1[C@H]2C [Cyclopamine] (10000 nM) | 103 |
| CC(=O)O[C@@]12CO[C@@H]1C[C@H](O)[C@@]1(C)C(=O)[C@H](O)C3=C(C)[C@@H](OC(=O)[C@H](O)[C@@H](NC(=O)OC(C)(C)C)c4ccccc4)C[C@@](O)([C@@H](OC(=O)c4ccccc4)[C@H]21)C3(C)C [Docetaxel] (10 nM) | 99.3 |
| Cn1cc(C2=Nc3cc(NC(=O)C(N)C4CCCCC4)cc4c3C2=CNNC4=O)cn1 (centres undefined) (100 nM) | 85 |
| COc1cc(F)c(F)c(Nc2ccc(I)cc2F)c1NS(=O)(=O)C1(C[C@H](O)CO)CC1 [Refametinib] (1000 nM) | 106 |
| O=NN(CCCl)C(=O)NCCCl [Carmustine] (1000 nM) | 103 |
| Cn1cc(C2=Nc3cc(NC(=O)C(N)C4CCCCC4)cc4c3C2=CNNC4=O)cn1 (centres undefined) (10000 nM) | 41.1 |
| CC1(C)CCC(CN2CCN(c3ccc(C(=O)NS(=O)(=O)c4ccc(NCC5CCOCC5)c([N+](=O)[O-])c4)c(Oc4cnc5[nH]ccc5c4)c3)CC2)=C(c2ccc(Cl)cc2)C1 [ABT-199] (1000 nM) | 99.2 |
| C[C@]1(O)C[C@@H](c2nc(-c3ccc4ccc(-c5ccccc5)nc4c3)c3c(N)nccn32)C1 [Linsitinib] (100 nM) | 99.3 |

stdin: Kindly indicate its recorded normalised response. Item: Oc1ncnc2[nH]ncc12 [Allopurinol] (1000 nM)
stdout: 63

stdin: Assign normalised response to the following record: Cn1cnc2c(F)c(Nc3ccc(Br)cc3Cl)c(C(=O)NOCCO)cc21 [Selumetinib] (1000 nM)
stdout: 104

stdin: Let me know recorded normalised response for CC(C)(C)c1cnc(CSc2cnc(NC(=O)C3CCNCC3)s2)o1 [SNS-032] (10000 nM) , thanks.
stdout: 99.2

stdin: Input COc1cc2c(cc1O)CC[C@@H]1[C@@H]2CC[C@]2(C)[C@@H](O)CC[C@@H]12 [2-methoxyestradiol] (10000 nM) , output reported normalised response.
stdout: 94.9

* * *

system: CAL-148; test: normalised viability (% of control), CellTiter-Blue; higher = more viable cells (about 100 = DMSO control); conditions: incubation time: 72 h
recorded_endpoint: normalised viability (%)
Only the number, expressed in %, is required.

Reference set (3 entries):
| compound | normalised viability, % |
| --- | --- |
| C[C@]1(O)C[C@@H](c2nc(-c3ccc4ccc(-c5ccccc5)nc4c3)c3c(N)nccn32)C1 [OSI-906] (1000 nM) | 95 |
| O=P(O)(O)C(O)(Cn1ccnc1)P(=O)(O)O [Zoledronic acid] (1000 nM) | 92.5 |
| CC1(C)CNc2cc(NC(=O)c3cccnc3NCc3ccncc3)ccc21 [Motesanib] (1000 nM) | 90.3 |

Moving on to another compound below.
stdin: Report normalised viability for Cn1cc(C2=Nc3cc(NC(=O)C(N)C4CCCCC4)cc4c3C2=CNNC4=O)cn1 (centres undefined) (1000 nM)
stdout: 62.4
